# System: A549
# Run description: Anticancer activity against human A549 cells assessed as inhibition of cell proliferation measured after 72 hrs by MTT assay
# Format: functional, cell-based
# Run parameters: A549, 72 h
pIC50: −log10 of the molar value.
Metric name: pIC50

// solved cases for pIC50 follow
Compound	pIC50
COc1ccc(/C=C/C(=O)c2cc(OC)c(OC)c(OC)c2)cc1OC(=O)CCC(=O)n1cc(C2CC(=O)NC2=O)c2cc(F)ccc21 (configuration not stated)	5.89
COc1ccc(/C=C\c2cc(OC)c(OC)c(OC)c2)cc1OC(=O)[C@H](N)Cc1cn(C)c2ccccc12	6.17
COc1ccc(/C=C\c2cc(OC)c(OC)c(OC)c2)cc1OC(=O)c1cccc(Cn2cc(CCOC(=O)[C@H](N)Cc3cn(C)c4ccccc34)nn2)c1	6.66
COc1ccc(/C=C/C(=O)c2cc(OC)c(OC)c(OC)c2)cc1OC(=O)c1cccc(Cn2cc(CCOC(=O)[C@H](N)Cc3cn(C)c4ccccc34)nn2)c1	6.15

[I] COc1ccc(/C=C/C(=O)c2cc(OC)c(OC)c(OC)c2)cc1O
[II] COc1ccc(/C=C/C(=O)c2cc(OC)c(OC)c(OC)c2)cc1OC(=O)c1cccc(Cn2cc(CCOC(=O)CCC(=O)n3cc(C4CC(=O)NC4=O)c4cc(F)ccc43)nn2)c1 (configuration not stated)
(Q) Dear colleague, could you let me know whether I or II has the lower recorded pIC50? Thanks. Please identify the chosen entry by its label.
(A) II
